Target: human PAH with the R408W mutation (Homo sapiens, UniProt P00439, R408W)
Construct: expressed in transfected cells
Sequence (P00439 whole entry R408W): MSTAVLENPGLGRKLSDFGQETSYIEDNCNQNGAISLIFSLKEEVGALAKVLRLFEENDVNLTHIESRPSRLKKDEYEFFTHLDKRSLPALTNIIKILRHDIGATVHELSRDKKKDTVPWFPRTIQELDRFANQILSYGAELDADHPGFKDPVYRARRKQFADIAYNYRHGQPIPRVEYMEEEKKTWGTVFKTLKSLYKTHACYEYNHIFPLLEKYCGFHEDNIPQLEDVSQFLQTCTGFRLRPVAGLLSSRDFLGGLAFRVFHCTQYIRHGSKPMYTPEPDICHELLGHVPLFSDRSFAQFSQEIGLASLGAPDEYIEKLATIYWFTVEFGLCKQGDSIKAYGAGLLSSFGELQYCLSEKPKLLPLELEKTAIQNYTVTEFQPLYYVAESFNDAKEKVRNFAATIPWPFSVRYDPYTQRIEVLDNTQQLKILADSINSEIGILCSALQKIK
Assay: Cell Based Phenylalanine Flux Assay
Settings: A375 cells expressing human R408W PAH; 24 hrs compound incubation; 13C-Tyrosine by LC-MS; average where tested multiple times; read-out: AC50
This listing pairs compounds with measured AC50.

O=C(c1cc(C(F)(F)F)n[nH]1)N1CCc2[nH]cnc2[C@@H]1c1nc2c(F)cccc2s1; 1000 to 5000 nM
O=C(c1nnc(-c2cnn(CC(F)(F)F)c2)o1)N1CCc2[nH]cnc2[C@H]1c1nc2ccccc2s1; < 500 nM
O=C(c1cnn(C2CC2)c1C(F)F)N1CCc2[nH]cnc2[C@H]1c1nc2c(F)cccc2s1; 500 to 1000 nM
O=C(c1nncn1C1CC1)N1CCc2[nH]cnc2[C@H]1c1nc2c(F)cccc2s1; 500 to 1000 nM
O=C(c1nnc(-c2ccn(C(F)F)n2)o1)N1CCc2[nH]cnc2[C@H]1c1nc2ccccc2s1; < 500 nM
O=C(c1cnco1)N1CCc2[nH]cnc2[C@@H]1c1nc2c(F)cccc2s1 [Example 2162]; 1000 to 5000 nM
CC(C)(O)c1ncc(C(=O)N2CCc3[nH]cnc3[C@H]2c2nc3ccccc3s2)o1; 500 to 1000 nM

Please find the next compound below.
Data request: Can you share its AC50? I mean this compound: `O=C(c1nnc(NC2CC2)o1)N1CCc2[nH]cnc2[C@H]1c1nc2ccccc2s1`
Data returned: 500 to 1000 nM

* * *

Target: human PAH with the R408W mutation (Homo sapiens, UniProt P00439, R408W)
Construct: expressed in transfected cells
Test: Cell Based Phenylalanine Flux Assay
Details: A375 cells expressing human R408W PAH; 24 hrs compound incubation; 13C-Tyrosine by LC-MS; average where tested multiple times; read-out: AC50
experimentalEndpoint: AC50

CC(C)(O)c1nc(Br)c(C(=O)N2CCc3[nH]cnc3[C@H]2c2nc3ccccc3s2)o1; < 500 nM

Data request: Can you share its AC50? I mean this molecule: `O=C(c1cnn2cc(CN3CCOCC3)ccc12)N1CCc2[nH]cnc2[C@H]1c1nc2ccccc2s1`
Data returned: 1000 to 5000 nM

Data request: Can you share its AC50? I mean this molecule: `O=C(c1oc(C2CC2)nc1C(F)(F)F)N1CCc2[nH]cnc2[C@@H]1c1nc2ccccc2s1`
Data returned: < 500 nM

* * *

This listing pairs compounds with measured AC50.
Target: human PAH with the R408W mutation (Homo sapiens, UniProt P00439, R408W)
Construct: expressed in transfected cells
Experiment: Cell Based Phenylalanine Flux Assay
Details: A375 cells expressing human R408W PAH; 24 hrs with compound; 13C-Tyrosine by LC-MS; average where tested multiple times; read-out: AC50

Below, 6 compounds whose answers are already recorded.
Cc1ccc2c(C(=O)N3CCc4[nH]cnc4C3c3nc4ccc(F)cc4s3)cnn2c1 (centres unmarked); > 5 µM
O=C(Cc1nccs1)N1CCc2[nH]cnc2C1c1nc2ccc(Cl)cc2[nH]1 (centres unmarked); 1 to 5 µM
O=C(Cc1cnco1)N1CCc2[nH]cnc2[C@H]1c1nc2ccccc2[nH]1; > 5 µM
O=C(c1cnn2cc(Cl)ccc12)N1CCc2[nH]cnc2C1c1nc2ccc(Cl)cc2[nH]1 (centres unmarked); > 5 µM
Cc1nc(N2CCOCC2)oc1C(=O)N1CCc2[nH]cnc2C1c1nc2c(F)cccc2s1 (centres unmarked); 1 to 5 µM
Cc1nc(C(C)(C)O)oc1C(=O)N1CCc2[nH]cnc2[C@H]1c1nc2ccccc2[nH]1; > 5 µM

Data request: Can you share its AC50? I mean this compound: CS(=O)(=O)c1ncoc1C(=O)N1CCc2[nH]cnc2C1c1nc2ccccc2s1 (centres unmarked)
Data returned: 1 to 5 µM

Data request: Can you share its AC50? I mean this compound: O=C(c1oc(-c2ccccn2)nc1C1CC1)N1CCCc2[nH]cnc2C1c1nc2ccccc2[nH]1 (centres unmarked)
Data returned: > 5 µM

Data request: Can you share its AC50? I mean this compound: CC(C)(O)c1nnc(C(=O)N2CCc3[nH]cnc3C2c2nc3c(F)cccc3s2)o1 (centres unmarked)
Data returned: 1 to 5 µM
